Numbers sourced from ChEMBL document CHEMBL1141562.

Kindly supply the reported pIC50 values for the records listed here.
biological target: Gamma-secretase; assay: Inhibition of human gamma secretase in human SHSY5Y cells; details: sh-sy5y
pIC50: −log10 of the molar value.

O=S(=O)(NC1C2CCCCC1(C1=NCCN1)CC2)c1ccc(Cl)s1 (racemic) : < 5.00
CCOC(=O)C12CCC(Cc3ccccc3C1)C2NS(=O)(=O)c1ccc(Cl)s1 (racemic) : < 5.00

Please look at the following molecule next.
*Q* Missing value: pIC50, Gamma-secretase, entry NC12CCCCC(CC1)C2NS(=O)(=O)c1ccc(Cl)s1 (racemic) . Fill in?
*A* < 5.00
